System: normal primary NK cells, pool 1 (3 donors) (IL-2 2.5 ng/mL)
PROCEDURE SUMMARY: percent inhibition of viability; higher = more inhibition;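 also: normalised to DMSO-only wells as negative and benzethonium chloride as positive control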
CONDITIONS USED: 72 h; 100 nM
This listing pairs molecules with measured percent inhibition of viability.

# MOLECULE, UNIT ABBREVIATION, percent inhibition of viability
rows = [
    ("COc1cc(N2CCC(N3CCN(C)CC3)CC2)ccc1Nc1ncnc(Nc2ccccc2S(=O)(=O)C(C)C)n1 [ASP3026] (max concentration tested 10000 nM)", "%", 6.01),
    ("COc1cc2nccc(Oc3ccc(NC(=O)Nc4cc(C)on4)c(Cl)c3)c2cc1OC [Tivozanib] (max concentration tested 10000 nM)", "%", -13),
    ("C[C@@H](Nc1cc(F)cc(F)c1)c1cc(C(=O)N(C)C)cc2c(=O)cc(N3CCOCC3)oc12 [AZD-8186] (max concentration tested 1000 nM)", "%", 5.09),
]

====

System: NKL (IL-2 2.5 ng/mL)
PROCEDURE SUMMARY: percent inhibition of viability; higher = more inhibition
CONDITIONS USED: 72 h; 1 nM
The reader will find reported percent inhibition of viability values listed item by item below.

# COMPOUND, SYSTEM NAME, percent inhibition of viability [%]
data = [
    ("CNC(=O)c1ccc(N2C(=S)N(c3ccc(C#N)c(C(F)(F)F)c3)C(=O)C23CCC3)cc1F [RD162] (max concentration tested 10000 nM)", "NKL (IL-2 2.5 ng/mL)", -11.3),
    ("C=CCc1cccc(/C=N/NC(=O)CN2CCN(Cc3ccccc3)CC2)c1O [PAC-1] (max concentration tested 10000 nM)", "NKL (IL-2 2.5 ng/mL)", -9.29),
    ("Nc1ccn([C@@H]2O[C@H](CO)[C@@H](O)[C@@H]2O)c(=O)n1 [Cytarabine] (max concentration tested 10000 nM)", "NKL (IL-2 2.5 ng/mL)", -6.71),
]

====

Here, each record is paired with measured percent inhibition of viability data.
Test system: KHYG-1 (IL-2 2.5 ng/mL)
PROCEDURE SUMMARY: percent inhibition of viability; higher = more inhibition
CONDITIONS USED: 72 h; 1 nM
QUANTITY NAME: percent inhibition of viability (%)

# COMPOUND, SYSTEM NAME, QUANTITY NAME, UNIT ABBREVIATION, REPORTED MEASUREMENT
rows = [
    ("CC(=O)O[C@H]1C(=O)[C@@]2(C)[C@H]([C@H](OC(=O)c3ccccc3)[C@]3(O)C[C@H](OC(=O)[C@H](O)[C@@H](NC(=O)c4ccccc4)c4ccccc4)C(C)=C1C3(C)C)[C@]1(OC(C)=O)CO[C@@H]1C[C@@H]2O [Paclitaxel] (max concentration tested 1000 nM)", "KHYG-1 (IL-2 2.5 ng/mL)", "percent inhibition of viability", "%", -0.23),
    ("Cc1cnc(Nc2ccc(OCCN3CCCC3)cc2)nc1Nc1cccc(S(=O)(=O)NC(C)(C)C)c1 (max concentration tested 10000 nM)", "KHYG-1 (IL-2 2.5 ng/mL)", "percent inhibition of viability", "%", -4.97),
    ("Clc1ccc(C(c2ccccc2Cl)C(Cl)Cl)cc1 (stereo not given) [Mitotane] (max concentration tested 10000 nM)", "KHYG-1 (IL-2 2.5 ng/mL)", "percent inhibition of viability", "%", -5.54),
    ("COC1=CC(c2cc3ccccc3[nH]2)=N/C1=C\\c1[nH]c(C)cc1C [Obatoclax] (max concentration tested 10000 nM)", "KHYG-1 (IL-2 2.5 ng/mL)", "percent inhibition of viability", "%", -3.69),
    ("CC(=O)O[C@@]12CO[C@@H]1C[C@H](O)[C@@]1(C)C(=O)[C@H](O)C3=C(C)[C@@H](OC(=O)[C@H](O)[C@@H](NC(=O)OC(C)(C)C)c4ccccc4)C[C@@](O)([C@@H](OC(=O)c4ccccc4)[C@H]21)C3(C)C [Docetaxel] (max concentration tested 1000 nM)", "KHYG-1 (IL-2 2.5 ng/mL)", "percent inhibition of viability", "%", 3.57),
    ("CNC(=O)c1ccc(N2C(=S)N(c3cnc(C#N)c(C(F)(F)F)c3)C(=O)C23CCC3)cc1F [ARN 509] (max concentration tested 10000 nM)", "KHYG-1 (IL-2 2.5 ng/mL)", "percent inhibition of viability", "%", -1.73),
    ("CO[C@H]1C[C@@H]2CC[C@@H](C)[C@@](O)(O2)C(=O)C(=O)N2CCCC[C@H]2C(=O)O[C@H]([C@H](C)C[C@@H]2CC[C@@H](OP(C)(C)=O)[C@H](OC)C2)CC(=O)[C@H](C)/C=C(\\C)[C@@H](O)[C@@H](OC)C(=O)[C@H](C)C[C@H](C)/C=C/C=C/C=C/1C [Ridaforolimus] (max concentration tested 100 nM)", "KHYG-1 (IL-2 2.5 ng/mL)", "percent inhibition of viability", "%", 0.66),
    ("O=C(O)CCCCC(CCSCc1ccccc1)SCc1ccccc1 (stereo not given) [CPI-613] (max concentration tested 10000 nM)", "KHYG-1 (IL-2 2.5 ng/mL)", "percent inhibition of viability", "%", -0.71),
    ("Nc1nc2[nH]cnc2c(=S)[nH]1 [Thioguanine] (max concentration tested 10000 nM)", "KHYG-1 (IL-2 2.5 ng/mL)", "percent inhibition of viability", "%", -13.1),
    ("N#CC[C@H](C1CCCC1)n1cc(-c2ncnc3[nH]ccc23)cn1 [Ruxolitinib] (max concentration tested 10000 nM)", "KHYG-1 (IL-2 2.5 ng/mL)", "percent inhibition of viability", "%", 7.19),
]
